# Tested on: HT 29
# test_method_notes: Growth inhibition test (MTT), cytotoxic action on tumour cell lines
# Type: cell-based
# measurement_parameters: Homo sapiens, HT-29, 144 h, read-out: IC50 values of the cytotoxic action on tumour cell lines, HT 29
measurement_label: log10(IC50) (log10 of the value in nM)
Please interpret these as log10 of IC50 where IC50 is in nM.

Ask: Request the reported log10(IC50) associated with CC[C@@]1(OC(=O)[C@@H](NC(=O)[C@H](Cc2c[nH]cn2)NC(=S)Nc2ccc(NC(=O)NC(CC(=O)O)c3cccc(NS(=O)(=O)c4cccc(NC(=N)N)c4)c3)cc2)C(C)C)C(=O)OCc2c1cc1n(c2=O)Cc2cc3ccccc3nc2-1 (stereo partly shown)
Result: 2.18

Ask: Request the reported log10(IC50) associated with CC[C@@]1(OC(=O)[C@@H](NC(=O)Nc2cccc(-c3cccc(S(=O)(=O)NC(CC(=O)O)c4ccccc4)c3)c2)C(C)C)C(=O)OCc2c1cc1n(c2=O)Cc2cc3ccccc3nc2-1 (stereo partly shown)
Result: 1.18

Ask: // log10(IC50) lookup, key: CC[C@@]1(OC(=O)[C@@H](NC(=O)[C@H](Cc2c[nH]cn2)NC(=S)Nc2cccc(S(=O)(=O)NC(CC(=O)O)c3cccc(NS(=O)(=O)c4cccc(NC(=N)N)c4)c3)c2)C(C)C)C(=O)OCc2c1cc1n(c2=O)Cc2cc3ccccc3nc2-1 (stereo partly shown)
Result: 2.60

Ask: Field request: log10(IC50) | item: CC[C@@]1(OC(=O)[C@@H](NC(=O)Nc2cccc(-c3ccc(C[C@H](NS(=O)(=O)CC45CCC(CC4=O)C5(C)C)C(=O)O)cc3)c2)C(C)C)C(=O)OCc2c1cc1n(c2=O)Cc2cc3ccccc3nc2-1 (stereo partly shown)
Result: 1.00

Ask: Would you kindly share the measured log10(IC50) for CC[C@@]1(OC(=O)[C@@H](NC(=O)[C@H](CCCCNC(=O)CC(NC(=O)CNC(=O)c2cccc(NC(=N)N)c2)c2ccccc2)NC(=S)Nc2ccccc2)C(C)C)C(=O)OCc2c1cc1n(c2=O)Cc2cc3ccccc3nc2-1 (stereo partly shown) ?
Result: 2.08

Ask: # query: log10(IC50) of entry CCC1(OC(=O)[C@@H](NC(=O)[C@H](Cc2c[nH]cn2)NC(=O)Nc2cccc(-c3ccc(S(=O)(=O)NC(CC(=O)O)c4ccccc4)cc3)c2)C(C)C)C(=O)OCc2c1cc1n(c2=O)Cc2cc3ccccc3nc2-1 (stereo partly shown)
Result: 2.60

Ask: So what does the record say about log10(IC50) for CC[C@@]1(OC(=O)[C@@H](NC(=O)[C@H](Cc2c[nH]cn2)NC(=S)Nc2cccc(S(=O)(=O)Nc3cccc(C(CC(=O)O)NS(=O)(=O)c4ccccc4)c3)c2)C(C)C)C(=O)OCc2c1cc1n(c2=O)Cc2cc3ccccc3nc2-1 (stereo partly shown) ?
Result: 1.85

Ask: Recorded log10(IC50) for CC[C@@]1(OC(=O)[C@@H](NC(=O)[C@H](CCCCNC(=O)OCC2c3ccccc3-c3ccccc32)NC(=O)Nc2cccc(-c3ccc(S(=O)(=O)NC(CC(=O)O)c4ccccc4)cc3)c2)C(C)C)C(=O)OCc2c1cc1n(c2=O)Cc2cc3ccccc3nc2-1 (stereo partly shown) , please?
Result: 2.48

Ask: Name the recorded log10(IC50) for CC[C@@]1(OC(=O)[C@@H](NC(=O)[C@H](CCCCN)NC(=S)Nc2ccc(S(=O)(=O)NC(CC(=O)O)c3cccc(NS(=O)(=O)c4cccc(NC(=N)N)c4)c3)cc2)C(C)C)C(=O)OCc2c1cc1n(c2=O)Cc2cc3ccccc3nc2-1 (stereo partly shown) .
Result: 2.30

Ask: Return reported log10(IC50); argument: CC[C@@]1(OC(=O)C(NC(=O)C(Cc2cnc[nH]2)NC(=S)Nc2cccc(-c3ccc(C[C@H](NS(=O)(=O)CC45CCC(CC4=O)C5(C)C)C(=O)O)cc3)c2)C(C)C)C(=O)OCc2c1cc1n(c2=O)Cc2cc3ccccc3nc2-1 (stereo partly shown)
Result: 2.48

Ask: Which log10(IC50) is listed for CCCNC(=O)Nc1cccc(-c2ccc(CC(NS(=O)(=O)c3cccc(NC(=S)N[C@@H](Cc4c[nH]cn4)C(=O)N[C@H](C(=O)O[C@]4(CC)C(=O)OCc5c4cc4n(c5=O)Cc5cc6ccccc6nc5-4)C(C)C)c3)C(=O)O)cc2)c1 (stereo partly shown) ?
Result: 2.54

Ask: So what's the measured log10(IC50) for this one? CC[C@@]1(OC(=O)[C@@H](NC(=O)[C@H](Cc2cnc[nH]2)NC(=S)Nc2ccc(CC(NS(=O)(=O)c3cc(-c4cccc(NC(=O)Nc5nc6ccccc6[nH]5)c4)ccc3OC)C(=O)O)cc2)C(C)C)C(=O)OCc2c1cc1n(c2=O)Cc2cc3ccccc3nc2-1 (stereo partly shown)
Result: 2.30

Ask: Reported log10(IC50), compound CC[C@@]1(OC(=O)[C@@H](NC(=O)[C@H](Cc2c[nH]cn2)NC(=O)Nc2cccc(-c3cccc(S(=O)(=O)NC(CC(=O)O)c4ccccc4)c3)c2)C(C)C)C(=O)OCc2c1cc1n(c2=O)Cc2cc3ccccc3nc2-1 (stereo partly shown) : ____
Result: 2.85

Ask: log10(IC50) lookup needed for CCCNC(=O)Nc1cccc(S(=O)(=O)Nc2cccc(C(CC(=O)O)NC(=O)Nc3ccc(NC(=S)N[C@@H](Cc4c[nH]cn4)C(=O)N[C@H](C(=O)O[C@]4(CC)C(=O)OCc5c4cc4n(c5=O)Cc5cc6ccccc6nc5-4)C(C)C)cc3)c2)c1 (stereo partly shown) , thanks.
Result: 1.95

Ask: Give its log10(IC50) value. Item: CC[C@@]1(OC(=O)[C@@H](NC(=O)[C@H](Cc2cnc[nH]2)NC(=S)Nc2cccc(C(CC(=O)O)NS(=O)(=O)c3cccc(-c4cccc(NC(=O)Nc5nc6ccccc6[nH]5)c4)c3)c2)C(C)C)C(=O)OCc2c1cc1n(c2=O)Cc2cc3ccccc3nc2-1 (stereo partly shown)
Result: 2.48

Ask: Recorded log10(IC50) of CC[C@@]1(OC(=O)[C@@H](NC(=O)[C@H](Cc2c[nH]cn2)NC(=S)Nc2ccc(S(=O)(=O)NC(CC(=O)O)c3cccc(NS(=O)(=O)c4cccc(NC(=N)N)c4)c3)cc2)C(C)C)C(=O)OCc2c1cc1n(c2=O)Cc2cc3ccccc3nc2-1 (stereo partly shown) , please.
Result: 2.30
